Assay setup: a range is the spread between reports
Metric: melting point

stdin: Field request: melting point | item: CC(=O)Nc1ccc2c(c1)Cc1ccccc1-2
stdout: 193 to 194 °C

----------
Reported values of melting point for individual entries
Assay setup: a range is the spread between reports

Below, each entry is followed by its recorded melting point result.
stdin: Field request: melting point | item: CSc1ccc(C(=O)O)cc1
stdout: 194 to 195 °C

stdin: What do we get for C=Cc1cccc(C)c1 ?
stdout: -86.3 to -82 °C

stdin: What do we get for OCC(O)C(O)CO (stereo unspecified) ?
stdout: 122 °C

stdin: What do we get for O=C1CCCN1 ?
stdout: 23 to 24 °C

stdin: What do we get for Cc1cccc(C)c1O ?
stdout: 45.7 to 49 °C

stdin: What do we get for S=C=Nc1ccc(Br)cc1 ?
stdout: 58 to 60.5 °C

New cases:
stdin: Field request: melting point | item: O=C(O)CCC(=O)C(=O)O
stdout: 115 to 116 °C

stdin: What do we get for Cc1ccc([N+](=O)[O-])c(O)c1 ?
stdout: 53 to 55 °C

----------
Reported values of melting point for individual entries
Assay setup: a range is the spread between reports

Below, each entry is followed by its recorded melting point result.
stdin: Field request: melting point | item: CC(C)(C)C1=CC(=O)C(=O)C(C(C)(C)C)=C1
stdout: 114 to 115 °C

stdin: What do we get for CC(NC(=O)OC(C)(C)C)C(=O)O (centres undefined) ?
stdout: 79.5 to 82 °C

New cases:
stdin: Field request: melting point | item: OCC(F)F
stdout: -28.2 to -28 °C

stdin: What do we get for O=C(O)C12CC3CC(CC(C3)C1)C2 ?
stdout: 174 to 175 °C

stdin: What do we get for O=C(O)C(Cl)=C(Cl)Cl ?
stdout: 73 to 76 °C

----------
Reported values of melting point for individual entries
Assay setup: a range is the spread between reports

Below, each entry is followed by its recorded melting point result.
stdin: Field request: melting point | item: CCCCC1(CC)C(=O)NC(=O)NC1=O
stdout: 126 to 128 °C

stdin: What do we get for ClC(Cl)(Cl)Cl ?
stdout: -23 to -22.9 °C

stdin: What do we get for OCC(CO)(CO)CO ?
stdout: 258 to 262 °C

stdin: What do we get for CCCCCc1ccc(O)cc1 ?
stdout: 23 to 24 °C

New cases:
stdin: Field request: melting point | item: CCc1cc(C(C)(C)C)c(O)c(C(C)(C)C)c1
stdout: 43 to 44 °C

----------
Assay setup: a range is the spread between reports
Reported values of melting point for individual entries

Below, each entry is followed by its recorded melting point result.
stdin: Field request: melting point | item: Nc1ccc2c(c1)CCC2
stdout: 35 to 37.5 °C

stdin: What do we get for N#Cc1ccc(N)cc1 ?
stdout: 84 to 85 °C

stdin: What do we get for c1ccc(P(c2ccccc2)c2ccccc2)cc1 ?
stdout: 80 to 80.5 °C

New cases:
stdin: Field request: melting point | item: Cc1ccncc1
stdout: 3 to 3.66 °C

----------
Assay setup: a range is the spread between reports
Reported values of melting point for individual entries

Below, each entry is followed by its recorded melting point result.
stdin: Field request: melting point | item: O=Cc1ccccc1Br
stdout: 20 to 22 °C

stdin: What do we get for CC(O)CNCC(C)O (stereo not given) ?
stdout: 42 to 44.5 °C

stdin: What do we get for c1csc(-c2ccc(-c3cccs3)s2)c1 ?
stdout: 92 to 93.5 °C

stdin: What do we get for O=C(O)COc1ccc(Cl)cc1Cl ?
stdout: 138 to 140 °C

stdin: What do we get for C[Si](C)(C)C ?
stdout: -100 to -99 °C

# evaluate next
stdin: Field request: melting point | item: Cc1cccc(C(=O)O)c1O
stdout: 165 to 166 °C
